Taken from patent US20130079345A1.

Molecular target: CDK1/CyclinB1 (Homo sapiens, UniProt P06493)
Sequence (P06493 whole entry): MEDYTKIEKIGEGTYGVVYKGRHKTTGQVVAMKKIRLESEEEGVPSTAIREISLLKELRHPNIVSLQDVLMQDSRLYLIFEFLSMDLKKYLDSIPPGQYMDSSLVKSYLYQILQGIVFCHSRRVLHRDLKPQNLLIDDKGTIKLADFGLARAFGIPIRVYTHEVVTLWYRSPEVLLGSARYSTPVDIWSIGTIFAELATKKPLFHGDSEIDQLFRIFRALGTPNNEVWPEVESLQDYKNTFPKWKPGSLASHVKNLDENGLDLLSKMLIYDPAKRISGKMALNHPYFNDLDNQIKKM
Sequence (P14635 whole entry partner): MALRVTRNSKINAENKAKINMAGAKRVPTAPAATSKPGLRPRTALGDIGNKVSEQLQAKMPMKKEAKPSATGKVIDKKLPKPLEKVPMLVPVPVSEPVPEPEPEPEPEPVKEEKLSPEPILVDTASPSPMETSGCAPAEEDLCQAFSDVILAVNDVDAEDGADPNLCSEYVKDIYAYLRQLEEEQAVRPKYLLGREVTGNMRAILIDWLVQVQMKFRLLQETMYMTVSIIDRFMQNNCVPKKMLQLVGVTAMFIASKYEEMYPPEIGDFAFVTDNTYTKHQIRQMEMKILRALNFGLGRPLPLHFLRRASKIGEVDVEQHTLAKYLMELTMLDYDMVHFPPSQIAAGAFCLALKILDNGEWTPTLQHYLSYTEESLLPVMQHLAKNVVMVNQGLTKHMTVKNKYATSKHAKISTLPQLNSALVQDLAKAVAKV
Test: Lance Ultra KinaSelect Assay, CDK1
Conditions: ATP 20 μM, read-out: Inhibition (IC50) CDK1
pIC50: −log10 of the molar value. Counter-ions that a name gives are not always drawn.
metric: pIC50

Consider the following illustrative entries.
>>> print(df.to_string())
                                   compound  metric  experimental_result
0  NS(=O)(=O)Cc1cccc(Nc2ncnc(-c3ccccc3OCc3ccccc3)n2)c1 [B13′, trifluoroacetic acid salt]   pIC50                 5.47
1  COc1cc(F)ccc1-c1ncnc(Nc2cccc(CS(N)(=O)=O)c2)n1 [B2″, trifluoroacetic acid salt]   pIC50                 6.05

(a) NS(=O)(=O)Cc1cccc(Nc2ncnc(-c3ccccc3OCc3ccncc3)n2)c1
(b) COc1ccccc1-c1ncnc(Nc2cccc(CCS(N)(=O)=O)c2)n1 [Compound D1]
(c) CCOc1ccccc1-c1ncnc(Nc2cccc(CS(N)(=O)=O)c2)n1
List items by pIC50 in falling order. Give the labels in the order specified.
b, a, c
(b: 5.59, a: 5.17, c: 4.94)
